Values from patent US20130131321A1

tested on: host cell proteins (HCP); assay: Microtiter plate chromatography of resins, host cell proteins (bound); type: binding, CHO; conditions: host cell proteins
Note to self: HCP Bound (%) under 40% means 1, ties and anything higher get 0.

structure_string: COc1ccc(-c2noc(C(=O)Nc3ccc(OC)c(C(=O)NCCCN)c3)n2)cc1
group_label: 1
--
structure_string: COc1ccc(NC(=O)c2cncc(-c3cc4ccccc4s3)c2)cc1C(=O)NCCCN
group_label: 0
--
structure_string: CCOc1ccc(NC(=O)c2cc(-c3ccco3)n(C)n2)cc1C(=O)NCCCN
group_label: 0
--
structure_string: COc1ccc(NC(=O)c2cncc(-c3ccco3)c2)cc1C(=O)NCCCN
group_label: 1
--
structure_string: COc1ccc(NC(=O)c2n[nH]c3ccccc23)cc1C(=O)NCCCN
group_label: 0
--
structure_string: COc1ccc(NC(=O)c2nn(C)c3ccccc23)cc1C(=O)NCCOCCOCC(=O)NCCOCCOCC(=O)NCCCN
group_label: 1
--
structure_string: COc1ccc(NC(=O)c2cn(C)c3ccccc23)cc1C(=O)NCCCN
group_label: 0
--
structure_string: COc1ccc(NC(=O)c2cc(-c3ccco3)n(C)n2)cc1C(=O)NCCCN
group_label: 1
